- Measurement Target: P. falciparum apicoplast DNA polymerase (Pf-apPOL) (Plasmodium falciparum, UniProt Q8ILY1)
- Sequence (Q8ILY1 entry or part of it): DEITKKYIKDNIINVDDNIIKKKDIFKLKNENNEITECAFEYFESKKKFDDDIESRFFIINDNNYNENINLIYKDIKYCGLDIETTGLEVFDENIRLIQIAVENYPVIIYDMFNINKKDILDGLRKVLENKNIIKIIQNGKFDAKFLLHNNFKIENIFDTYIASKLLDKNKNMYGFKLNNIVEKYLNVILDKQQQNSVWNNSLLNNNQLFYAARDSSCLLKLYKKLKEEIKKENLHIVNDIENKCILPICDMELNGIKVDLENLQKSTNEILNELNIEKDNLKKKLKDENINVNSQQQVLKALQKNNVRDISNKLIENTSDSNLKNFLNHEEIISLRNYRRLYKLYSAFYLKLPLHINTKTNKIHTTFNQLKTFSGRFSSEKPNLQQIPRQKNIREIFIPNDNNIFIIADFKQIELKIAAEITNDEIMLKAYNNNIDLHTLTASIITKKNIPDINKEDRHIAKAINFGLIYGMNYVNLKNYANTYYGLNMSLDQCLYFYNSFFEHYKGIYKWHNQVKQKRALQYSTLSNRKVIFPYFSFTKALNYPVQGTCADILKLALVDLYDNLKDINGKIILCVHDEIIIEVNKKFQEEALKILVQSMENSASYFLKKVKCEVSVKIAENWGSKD
- Protocol: Fluorescence-based high-throughput DNA polymerase assay (molecular beacon), primary screen and dose-response
- Type: biochemical
- Experimental Context: DRC-1; 10'; concentration 20
Property Name: % inhibition Apo pol 10' (%)
Report the figure in % without appending any unit label.

Here's what some known entries look like.
>>> df
                                   compound  readout_number
0  CCC(C)NC(=O)c1cc(NC(C)=O)cc2nc(C)ccc12 (stereo not shown) [KU0206314]         37.1675
1  O=C(Nc1cccc(Cl)c1)Nc1nnc(-c2ccncc2)s1 [KU0022348]         75.3838
2  COCCN(CCOC)Cc1c(O)ccc2c1OC(=Cc1cc(Br)ccc1OC)C2=O [KU0198471]         43.5523
3  CCOC(=O)C1=C2c3cc(OC)c(OC)cc3CC(C)(C)N2C(=O)C1=O [KU0193659]         48.7622
4  O=[N+]([O-])c1cc2c(cc1CN1CCCCCC1)OCO2 [KU0004987]         39.2503
5  O=C1N/C(=N/c2ccccc2Cl)S/C1=C/c1ccc([N+](=O)[O-])o1 [KU0054524]         56.2802
6  O=C(Cc1cc(=O)[nH]c(SCc2ccccc2)n1)Nc1ccc2c(c1)OCO2 [Molecule 46]         58.1636
7  O=C1C(=Cc2ccncc2)Oc2c1ccc1c2CN(Cc2ccc3c(c2)OCO3)CO1 [KU0199357]         43.4481
8  O=C(NC(C(Cl)Cl)S(=O)(=O)c1ccccc1)c1ccccc1 (stereo not shown) [KU0045239]         67.0388
9  COc1ccc(C=C2Oc3c(ccc4c3CN(c3ccc5c(c3)OCO5)CO4)C2=O)cc1OC [KU0199426]          49.962

Looking up O=C(CSc1nnc(-c2ccncc2)[nH]1)c1ccc(O)c(O)c1 [Molecule 89] , I found its % inhibition Apo pol 10' recorded as 91.1846

Looking up CCOc1ccccc1-c1nc(-c2ccc(=O)[nH]c2)no1 [Molecule 76, CCOc1ccccc1c1onc(n1)c1ccc(=O)[nH]c1] , I found its % inhibition Apo pol 10' recorded as 38.1067

Looking up COc1cc(NC(=O)c2ccccc2)c(OC)cc1NC(=O)Cc1cccs1 [KU0032113] , I found its % inhibition Apo pol 10' recorded as 61.3818

Looking up Cc1cccc(-c2nnc3ccc(NS(=O)(=O)c4ccc(C)c(C)c4)nn23)c1 [Molecule 40] , I found its % inhibition Apo pol 10' recorded as 64.4117

Looking up OC(C#Cc1ccccc1)c1ccco1 (stereo not shown) [Molecule 95, OC(c1ccco1)C#Cc1ccccc1] , I found its % inhibition Apo pol 10' recorded as 80.9257

Looking up O=c1cc(-c2ccccc2)oc2c(O)c(O)ccc12 [Molecule 84, Oc1ccc2c(c1O)oc(cc2=O)c1ccccc1] , I found its % inhibition Apo pol 10' recorded as 42.9919

Looking up CC1=NNC(=O)C1Oc1ccc(Cl)cc1Cl (stereo not shown) [KU0265591] , I found its % inhibition Apo pol 10' recorded as 39.4478

Looking up CSCCC(C)(O)CNC(=O)C1CC1 (stereo not shown) [KU0200150] , I found its % inhibition Apo pol 10' recorded as 27.3456

Looking up O=C(O)CCS(=O)(=O)c1ccc(-c2ccc(S(=O)(=O)CCC(=O)O)cc2)cc1 [Molecule 32] , I found its % inhibition Apo pol 10' recorded as 75.2971

Looking up O=c1[nH]c2ccc([N+](=O)[O-])cc2c(-c2ccccc2)c1Sc1nc2ccccc2o1 [KU0067471] , I found its % inhibition Apo pol 10' recorded as 44.3997

Looking up COCC(=O)Nc1c(-c2cccc(F)c2)nc2cc(C)ccn12 [Molecule 44, COCC(=O)Nc1c(nc2n1ccc(c2)C)c1cccc(c1)F] , I found its % inhibition Apo pol 10' recorded as 55.8788

Looking up CCCCCCCCCCCCCCCCCC(=O)CCN(C)C [KU0271928] , I found its % inhibition Apo pol 10' recorded as 22.8957

Looking up O=C(NCC1CCN(C2CCCC2)CC1)C(=O)NC1CCCC1 [KU0199596] , I found its % inhibition Apo pol 10' recorded as 30.2117

Looking up O=C(O)c1ccc(-c2nc3cc(-c4ccc5nc(-c6ccc(C(=O)O)cc6)[nH]c5c4)ccc3[nH]2)cc1 [Molecule 1] , I found its % inhibition Apo pol 10' recorded as 72.8856

Looking up Cc1cc(C)c2c(O)nc(SCC(=O)c3ccc(O)c(O)c3)nc2n1 [Molecule 88] , I found its % inhibition Apo pol 10' recorded as 96.9488

Looking up NC(=O)c1cc[n+](CC2=C(C(=O)[O-])N3C(=O)[C@@H](NC(=O)[C@@H](c4ccccc4)S(=O)(=O)[O-])[C@H]3SC2)cc1.[Na+] [Molecule 9] , I found its % inhibition Apo pol 10' recorded as 94.0018

Looking up CC(NC(=O)Cc1cc(=O)[nH]c(SCc2cccc(Cl)c2)n1)c1ccccc1 (stereo not shown) [Molecule 67] , I found its % inhibition Apo pol 10' recorded as 48.0532

Looking up Cl.NC(CO)C(=O)NNCc1ccc(O)c(O)c1O (stereo not shown) [KU0260493] , I found its % inhibition Apo pol 10' recorded as 26.1922

Looking up CCOc1cccc2cc(C(=O)Nc3nnc(-c4ccno4)o3)oc12 [Molecule 28, CCOc1cccc2c1oc(c2)C(=O)Nc1nnc(o1)c1ccno1] , I found its % inhibition Apo pol 10' recorded as 85.0301

Looking up O=C(CSc1nnc(-c2ccco2)[nH]1)c1ccc(Cl)cc1 [KU0029065] , I found its % inhibition Apo pol 10' recorded as 81.7468

Looking up CN(C)C1C(c2ccccc2)=C(c2ccccc2)SC(c2ccccc2)C1[N+](=O)[O-] (stereo not shown) [KU0268387] , I found its % inhibition Apo pol 10' recorded as 49.4618

Looking up CCCCOC(=O)CCCCCN1C(=O)C(=Cc2ccc(OC)cc2)SC1=S [Molecule 75] , I found its % inhibition Apo pol 10' recorded as 12.7699

Looking up O=[N+]([O-])/C=C/c1ccc(-c2ccc(Br)cc2)o1 [Molecule 31, O=N(=O)/C=C/c1ccc(o1)c1ccc(cc1)Br] , I found its % inhibition Apo pol 10' recorded as 74.9493

Looking up Cc1cc(C)cc(-n2nc3c(c2NC(=O)c2ccco2)CSC3)c1 [KU0055926] , I found its % inhibition Apo pol 10' recorded as 82.6519
